# ASSAY_METHOD_TEXT: Pharmacokinetic analysis of vepafestinib in rats (microdialysis PFC, CSF, plasma)
# Format: in vivo, male Han Wistar rats
# TEST_CONTEXT: male, Han Wistar, rat, plasma (total), oral, 10 mg/kg; 30 min; individual rats; read-out: Concentration in Rats, Plasma (total)
READOUT_KIND: concentration at 30 min (µM)
Provide the reading as a plain figure in µM.

Item under review: COCc1ccc(NC(=O)c2c(C#CCN3CCOCC3)n(C3(C)CC3)c3ncnc(N)c23)cc1 . Reported concentration at 30 min?
8.66

* * *

# ASSAY_METHOD_TEXT: Pharmacokinetic analysis of vepafestinib in rats (microdialysis PFC, CSF, plasma)
# Type: in vivo, male Han Wistar rats
# TEST_CONTEXT: male, Han Wistar, rat, plasma (total), oral, 3 mg/kg; 480 min; individual rats; read-out: Concentration in Rats, Plasma (total)
READOUT_KIND: concentration at 480 min
Remember to put the unit after the number in your answer.

concentration at 480 min for COCc1ccc(NC(=O)c2c(C#CCN3CCOCC3)n(C3(C)CC3)c3ncnc(N)c23)cc1 ?
159 nM

* * *

# ASSAY_METHOD_TEXT: Pharmacokinetic analysis of vepafestinib in rats (microdialysis PFC, CSF, plasma)
# Assay type: in vivo, male Han Wistar rats
# TEST_CONTEXT: male, Han Wistar, rat, cerebrospinal fluid, oral, 10 mg/kg; 120 min; individual rats; read-out: Concentration in Rats, Cerebrospinal fluid
READOUT_KIND: concentration at 120 min

Give its concentration at 120 min value. Item: COCc1ccc(NC(=O)c2c(C#CCN3CCOCC3)n(C3(C)CC3)c3ncnc(N)c23)cc1
585 nM

* * *

# ASSAY_METHOD_TEXT: Transcellular transport study, apparent permeability
# TEST_CONTEXT: pig, LLC-PK1
READOUT_KIND: Papp at 3 h, 1 μM (×10⁻⁶ cm/s)
// units = ×10⁻⁶ cm/s; emit number, no label

For orientation, consider the following solved cases.
>  <SMILES_INPUT>
COc1ccc(CN2C3CC2CN(c2ccc(-c4cc(OCC(C)(C)O)cn5ncc(C#N)c45)cn2)C3)cn1

>  <Papp at 3 h, 1 μM [×10⁻⁶ cm/s]>
17

$$$$
>  <SMILES_INPUT>
CO[C@]1(C(=O)N[C@@H](C)c2ccc(-n3cc(F)cn3)nc2)CC[C@H](c2nc(C)cc(Nc3cc(C)[nH]n3)n2)CC1

>  <Papp at 3 h, 1 μM [×10⁻⁶ cm/s]>
14.3

$$$$

Shift focus to the following entry.
Request the reported Papp at 3 h, 1 μM associated with COCc1ccc(NC(=O)c2c(C#CCN3CCOCC3)n(C3(C)CC3)c3ncnc(N)c23)cc1
24

* * *

# Test system: TT cells (RET C634W)
# ASSAY_METHOD_TEXT: Dose-response western blotting, EC50 for inhibition of protein phosphorylation
# Type: cell-based
# TEST_CONTEXT: Homo sapiens, read-out: EC50 for Inhibition of Protein Phosphorylation (95% CI), RET Y905, 2 h, densitometry
# pEC50 listing for each entry below
Lab note — pEC50 values are minus log10 of concentrations in M.

>  <MOLECULE>
COc1ccc(CN2C3CC2CN(c2ccc(-c4cc(OCC(C)(C)O)cn5ncc(C#N)c45)cn2)C3)cn1 [Selpercatinib]

>  <REPORTED>
7.93

$$$$

Param item = CO[C@]1(C(=O)N[C@@H](C)c2ccc(-n3cc(F)cn3)nc2)CC[C@H](c2nc(C)cc(Nc3cc(C)[nH]n3)n2)CC1 [Pralsetinib] ; retrieve measured pEC50.
9.00

Repeat for the following molecule: COCc1ccc(NC(=O)c2c(C#CCN3CCOCC3)n(C3(C)CC3)c3ncnc(N)c23)cc1 [Vepafestinib]
9.52

* * *

# ASSAY_METHOD_TEXT: Pharmacokinetic analysis of vepafestinib in rats (microdialysis PFC, CSF, plasma)
# Format: in vivo, male Han Wistar rats
# TEST_CONTEXT: male, Han Wistar, rat, prefrontal cortex microdialysate, oral, 50 mg/kg, rats; 50 mg/kg; 1500 min; individual animals; read-out: Concentration in Prefrontal cortex
READOUT_KIND: concentration at 1500 min (nM)
Reply with just the number (in nM).

Fill in: concentration at 1500 min of COCc1ccc(NC(=O)c2c(C#CCN3CCOCC3)n(C3(C)CC3)c3ncnc(N)c23)cc1 [Vepafestinib] is ___
71.6

* * *

# ASSAY_METHOD_TEXT: Pharmacokinetic analysis of vepafestinib in rats (microdialysis PFC, CSF, plasma)
# Type: in vivo, male Han Wistar rats
# TEST_CONTEXT: male, Han Wistar, rat, cerebrospinal fluid, oral, 3 mg/kg; 120 min; individual rats; read-out: Concentration in Rats, Cerebrospinal fluid
READOUT_KIND: concentration at 120 min (nM)
Lab book: enter the figure in nM, no units written.

Item under review: COCc1ccc(NC(=O)c2c(C#CCN3CCOCC3)n(C3(C)CC3)c3ncnc(N)c23)cc1 [Vepafestinib] . Reported concentration at 120 min?
67.4

* * *

# ASSAY_METHOD_TEXT: Pharmacokinetic analysis of vepafestinib in rats (microdialysis PFC, CSF, plasma)
# Format: in vivo, male Han Wistar rats
# TEST_CONTEXT: male, Han Wistar, rat, plasma (total), oral, 10 mg/kg; 240 min; individual rats; read-out: Concentration in Rats, Plasma (total)
READOUT_KIND: concentration at 240 min (nM)
Reply numerically in nM, unit not repeated.

Item under review: COCc1ccc(NC(=O)c2c(C#CCN3CCOCC3)n(C3(C)CC3)c3ncnc(N)c23)cc1 . Reported concentration at 240 min?
872

* * *

# ASSAY_METHOD_TEXT: Pharmacokinetic analysis of vepafestinib in rats (microdialysis PFC, CSF, plasma)
# Type: in vivo, male Han Wistar rats
# TEST_CONTEXT: male, Han Wistar, rat, prefrontal cortex microdialysate, oral, 10 mg/kg; 30 min; individual rats; read-out: Concentration in Rats, Prefrontal cortex
READOUT_KIND: concentration at 30 min

What value of concentration at 30 min has been reported for the following compound? COCc1ccc(NC(=O)c2c(C#CCN3CCOCC3)n(C3(C)CC3)c3ncnc(N)c23)cc1 [Vepafestinib]
17.5 nM

* * *

# STUDY_TARGET: KIF5B–RET L760Q (Homo sapiens, UniProt P07949, L760Q)
# Construct: Fusion of the RET kinase domain with several N-terminal partners such as kinesin family 5B (KIF5B); KIF5B (N-terminal fusion partner)
# Sequence (P07949 713-1063 L760Q limits assumed): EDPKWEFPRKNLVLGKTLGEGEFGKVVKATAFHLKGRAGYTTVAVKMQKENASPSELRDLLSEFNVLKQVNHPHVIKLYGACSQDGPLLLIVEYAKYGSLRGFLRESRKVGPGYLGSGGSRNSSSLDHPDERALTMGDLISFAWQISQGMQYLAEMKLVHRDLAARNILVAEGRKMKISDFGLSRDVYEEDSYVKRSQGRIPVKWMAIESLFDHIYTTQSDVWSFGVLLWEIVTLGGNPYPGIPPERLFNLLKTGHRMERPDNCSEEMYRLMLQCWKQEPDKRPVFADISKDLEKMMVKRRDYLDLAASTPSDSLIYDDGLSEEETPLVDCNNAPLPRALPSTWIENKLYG
# ASSAY_METHOD_TEXT: In-cell western assay of RET autophosphorylation
# TEST_CONTEXT: Jump-In GripTite HEK293 cells, one hour; Mean
READOUT_KIND: IC50 (nM)
Dear colleague, please return just the value in nM, with no unit written.

Returns the measured IC50 for the input molecule. Input: C[C@H]1CNC(=O)c2cnn3cc4c(nc23)N(Cc2cc(F)cnc2O1)[C@@H]1CCC[C@@H]1O4 [TPX-0046]
5.35

* * *

# Test system: LUAD-0087AS2 cells
# ASSAY_METHOD_TEXT: Growth inhibition (alamarBlue, 96 h)
# Assay type: cell-based, human
# TEST_CONTEXT: Homo sapiens, 96 h, read-out: IC50 for Inhibition of Growth (95% CI)
READOUT_KIND: IC50 (nM)
Expressed in nM, but write only the number.

>  <COMPOUND>
COc1ccc(CN2C3CC2CN(c2ccc(-c4cc(OCC(C)(C)O)cn5ncc(C#N)c45)cn2)C3)cn1 [Selpercatinib]

>  <STUDY_TARGET>
LUAD-0087AS2 cells

>  <UNIT_OF_MEASUREMENT>
nM

>  <REPORTED>
11

$$$$

Item CO[C@]1(C(=O)N[C@@H](C)c2ccc(-n3cc(F)cn3)nc2)CC[C@H](c2nc(C)cc(Nc3cc(C)[nH]n3)n2)CC1 [Pralsetinib] has what recorded IC50?
24

Please answer likewise for COCc1ccc(NC(=O)c2c(C#CCN3CCOCC3)n(C3(C)CC3)c3ncnc(N)c23)cc1 [Vepafestinib]
52

* * *

# ASSAY_METHOD_TEXT: Pharmacokinetic analysis of vepafestinib in rats (microdialysis PFC, CSF, plasma)
# Assay type: in vivo, male Han Wistar rats
# TEST_CONTEXT: male, Han Wistar, rat, prefrontal cortex microdialysate, oral, 3 mg/kg; 150 min; individual rats
READOUT_KIND: concentration at 150 min (nM)
Your answer should be a plain number; it is taken to be in nM.

Recorded concentration at 150 min of COCc1ccc(NC(=O)c2c(C#CCN3CCOCC3)n(C3(C)CC3)c3ncnc(N)c23)cc1 , please.
101

* * *

# ASSAY_METHOD_TEXT: Pharmacokinetic analysis of vepafestinib in rats (microdialysis PFC, CSF, plasma)
# Type: in vivo, male Han Wistar rats
# TEST_CONTEXT: male, Han Wistar, rat, plasma (total), oral, 50 mg/kg; 60 min; individual rats; read-out: Concentration in Rats, Plasma (total)
READOUT_KIND: concentration at 60 min (µM)
Give the value in µM but do not write µM after it.

Reported concentration at 60 min, compound COCc1ccc(NC(=O)c2c(C#CCN3CCOCC3)n(C3(C)CC3)c3ncnc(N)c23)cc1 : ____
10.4
